- assayInfo: pH of 5% (w/w) aqueous solution or suspension of additive
- Assay type: physicochemical
- testParameters: 5% (w/w) aqueous solution or suspension of the additive itself
Parameter threshold = 8. Response is rule met when pH value of 5% (w/w) aqueous solution or suspension meets or exceeds it, else rule not met.

Task item: Hi, just wondering whether O=C([O-])[O-].[Na+].[Na+] [Na2CO3, Sodium carbonate] shows pH value of 5% (w/w) aqueous solution or suspension of 8 or higher.
Reply: rule met

Task item: Identify whether the reported pH value of 5% (w/w) aqueous solution or suspension of the following compound is 8 or greater: NCC(=O)O [Glycine]
Reply: rule not met

Task item: Could you tell me if the measured pH value of 5% (w/w) aqueous solution or suspension of CC(=O)[O-].[Na+] [Sodium acetate] reaches 8 or more?
Reply: rule met

Task item: Is it the case that [Na+].[OH-] [NaOH, Sodium hydroxide] has pH value of 5% (w/w) aqueous solution or suspension reaching or exceeding 8?
Reply: rule met

Task item: I'd appreciate it if you could say whether O=C1O[C@H](CO)[C@@H](O)[C@H](O)[C@H]1O [δ-Gluconolactone] has pH value of 5% (w/w) aqueous solution or suspension at least equal to 8.
Reply: rule not met

Task item: Reported pH value of 5% (w/w) aqueous solution or suspension at or above 8? O=P([O-])([O-])O.[Na+].[Na+] [Na2HPO4, Disodium hydrogenphosphate]
Reply: rule met

Task item: Is pH value of 5% (w/w) aqueous solution or suspension for [O]=[Mg] [MgO, Magnesium oxide] at or above 8?
Reply: rule met

Task item: I'd appreciate it if you could say whether O=P([O-])([O-])O.[K+].[K+] [Example K2HPO4, Dipotassium hydrogenphosphate] has pH value of 5% (w/w) aqueous solution or suspension at least equal to 8.
Reply: rule met
